B1: tRNA (parent)
chain: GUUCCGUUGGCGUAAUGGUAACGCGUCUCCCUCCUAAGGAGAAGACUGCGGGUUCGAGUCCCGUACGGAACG

Variants of: B1
Assay: yeast fitness relative to wild type (ratio to wild type); higher = fitter; tRNA-Arg(CCU), competitive growth, 37 C, YPD
Variants at the floor of the assay were thinned out.
Answer 0 if yeast fitness is under 0.7, and 1 if it is 0.7 or more.

| MUTATION NOTATION | LABEL VALUE |
| --- | --- |
| U16A C22A G23C C34U A36G A40U | 0 |
| U13A G23C C27G C49U U53C C61A G68A | 0 |
| C29U U64A | 0 |
| A37C A43C C62U | 1 |
| G48C A70C | 1 |
| G10C C22U | 1 |
| C11G C22U U53C G68C | 0 |
| C11A C24G C49U | 0 |
| U2A G6C U16C C24U C46G C49A C61U | 0 |

Now examine the next entry.
### Prompt Threshold query (yeast fitness >= 0.7) on C33G G51A C55A C66U
### Response 0
